Dear all, this message contains pKi results, target or system Sodium-dependent serotonin transporter (Homo sapiens).
pKi: −log10 of the molar value.
readoutType: pKi

* C#CCOc1ccc(C(=O)c2ccc(C(=O)NCc3ccc4c(c3)CO[C@@]4(CCCN(C)C)c3ccc(F)cc3)cc2)cc1 | 9.80
* CN(C)CCC[C@@]1(c2ccc(F)cc2)OCc2cc(CNC(=O)c3cc(CN=[N+]=[N-])cc(N=[N+]=[N-])c3)ccc21 | 7.97

Sourced from ChEMBL document CHEMBL4265966
